# TESTED_TARGET: T1, C4b binding protein (human, UniProt P04003 49-597; P20851 18-252)
# T1 construct: mature; The beta chain is added from general knowledge; Biotinylated (b-C4BP) in some assays; also called C4BP; purified human C4BP
# T1 sequence (looked up) 1: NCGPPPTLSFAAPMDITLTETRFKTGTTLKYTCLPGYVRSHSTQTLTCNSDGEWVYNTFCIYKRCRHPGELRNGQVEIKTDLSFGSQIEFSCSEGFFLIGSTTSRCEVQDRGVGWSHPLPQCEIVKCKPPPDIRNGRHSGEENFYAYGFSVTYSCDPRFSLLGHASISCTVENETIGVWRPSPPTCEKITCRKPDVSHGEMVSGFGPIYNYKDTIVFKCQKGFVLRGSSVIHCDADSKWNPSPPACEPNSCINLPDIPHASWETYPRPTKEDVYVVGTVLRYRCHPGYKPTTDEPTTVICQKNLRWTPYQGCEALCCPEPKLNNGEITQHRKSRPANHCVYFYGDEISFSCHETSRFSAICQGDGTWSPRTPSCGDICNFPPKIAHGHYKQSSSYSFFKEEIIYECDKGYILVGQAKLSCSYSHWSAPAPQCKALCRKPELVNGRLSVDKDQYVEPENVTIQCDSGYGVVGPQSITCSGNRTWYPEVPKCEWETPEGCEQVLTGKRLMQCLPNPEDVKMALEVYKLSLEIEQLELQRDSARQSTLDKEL
# T1 sequence (looked up) 2: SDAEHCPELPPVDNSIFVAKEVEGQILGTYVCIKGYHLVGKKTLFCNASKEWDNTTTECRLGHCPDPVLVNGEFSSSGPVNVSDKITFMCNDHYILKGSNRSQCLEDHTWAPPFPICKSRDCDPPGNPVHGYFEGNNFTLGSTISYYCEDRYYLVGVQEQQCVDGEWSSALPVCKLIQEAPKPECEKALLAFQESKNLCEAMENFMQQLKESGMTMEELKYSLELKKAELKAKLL
# PROTOCOL_NOTES: Competition ELISA, peptide preincubated with b-C4BP, PS-coated wells
Ends that are not written are not given here.
MEASURED_PROPERTY: IC50

I have this binder here, CIRSWNLMKQGASIKEIIQEKQNKHC-NH2 (cysteine pairing not given here, also called loop peptide) [PSP-loop] , and I need its recorded IC50.
~15 µM

Check SGIKEIIQEKQNKHC-NH2 (also: biotinylated form b-PSP-12 also used, also called b-PSP-12 (biotinylated)) [PSP-12] too.
~50 µM
